# system under test: Hexokinase-II enzyme (Homo sapiens)
# Construct: purchased Abcam ab211114
# Sequence (P52789 whole entry): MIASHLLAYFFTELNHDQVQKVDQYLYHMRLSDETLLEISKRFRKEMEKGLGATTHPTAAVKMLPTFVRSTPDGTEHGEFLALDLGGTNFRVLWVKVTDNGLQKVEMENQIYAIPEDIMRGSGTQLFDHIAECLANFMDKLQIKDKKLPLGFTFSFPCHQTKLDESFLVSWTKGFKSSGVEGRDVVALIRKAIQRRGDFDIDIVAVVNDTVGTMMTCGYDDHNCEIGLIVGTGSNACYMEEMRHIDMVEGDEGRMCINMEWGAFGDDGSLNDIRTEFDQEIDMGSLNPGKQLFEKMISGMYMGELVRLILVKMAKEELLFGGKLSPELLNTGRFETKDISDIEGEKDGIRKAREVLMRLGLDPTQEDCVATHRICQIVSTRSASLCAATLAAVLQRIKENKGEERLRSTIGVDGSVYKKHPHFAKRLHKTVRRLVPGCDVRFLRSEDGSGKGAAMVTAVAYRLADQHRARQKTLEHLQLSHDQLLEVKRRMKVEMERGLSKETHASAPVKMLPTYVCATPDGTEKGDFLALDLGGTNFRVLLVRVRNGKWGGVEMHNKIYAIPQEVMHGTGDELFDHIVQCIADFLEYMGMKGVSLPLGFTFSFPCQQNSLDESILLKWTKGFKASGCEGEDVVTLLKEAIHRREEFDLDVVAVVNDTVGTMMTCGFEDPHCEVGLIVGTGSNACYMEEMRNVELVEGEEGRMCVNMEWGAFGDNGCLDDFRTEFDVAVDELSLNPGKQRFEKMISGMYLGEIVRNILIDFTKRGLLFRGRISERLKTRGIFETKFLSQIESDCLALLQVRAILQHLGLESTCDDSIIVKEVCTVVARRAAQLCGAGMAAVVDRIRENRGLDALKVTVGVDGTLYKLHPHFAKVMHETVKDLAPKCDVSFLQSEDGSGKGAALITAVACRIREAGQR
# experiment summary: Hexokinase-II inhibitor screening kit (enzyme activity)
# Format: biochemical
# condition notes: compound 1 to 128 μM; read-out: IC50 on Hexokinase-II enzyme
reported property: IC50 (µM)
Dear colleague, please return just the value in µM, with no unit written.

> print(dat)
                           structure.string  endpoint.result
1  CN1C(=O)[C@](O)(CC(=O)c2cc(O)ccc2O)c2ccccc21             17.5

Data request, read-out IC50, for Nc1nc(SCC(=O)Nc2cccc([N+](=O)[O-])c2)sc1C(=O)Nc1nccs1 45

Values compiled from paper PMC9658052.
